Provenance of the data: ChEMBL document CHEMBL4813953

Experiment: Tmax in human plasma at 4 mg, po
Format: ADME, cell-free
result type: Tmax
Answer with the number, then the unit.

Which Tmax value belongs to COc1cc2c(cc1OC)C(=O)C(CC1(F)CCN(Cc3ccccc3F)CC1)C2 (stereo unspecified) ?
45 min

###

Assay: Oral bioavailability in Sprague-Dawley rat at 0.5 mg/kg
Format: ADME, organism-based
Conditions: in vivo
result type: bioavailability (%)
Number in %, nothing else.

Which bioavailability value belongs to COc1cc2c(cc1OC)C(=O)C(CC1(F)CCN(Cc3ccccc3F)CC1)C2 (stereo unspecified) ?
45.3

###

Test: Tmax in Sprague-Dawley rat at 0.5 mg/kg, po
Assay type: ADME, organism-based
Settings: in vivo
result type: Tmax
Answer with the number, then the unit.

Which Tmax value belongs to COc1cc2c(cc1OC)C(=O)C(CC1(F)CCN(Cc3ccccc3F)CC1)C2 (stereo unspecified) ?
37.8 min

###

Experiment: Terminal half life in human plasma at 4 mg, po
Assay type: ADME, cell-free
Conditions: read-out: beta t1/2 (converted)
result type: half-life (h)
Number in h, nothing else.

Which half-life value belongs to COc1cc2c(cc1OC)C(=O)C(CC1(F)CCN(Cc3ccccc3F)CC1)C2 (stereo unspecified) ?
30.8

###

Assay: Clearance in Sprague-Dawley rat at 0.5 mg/kg, iv
Type: ADME, organism-based
Details: in vivo
result type: clearance (mL/min/kg)
Number in mL/min/kg, nothing else.

Which clearance value belongs to COc1cc2c(cc1OC)C(=O)C(CC1(F)CCN(Cc3ccccc3F)CC1)C2 (stereo unspecified) ?
23.7

###

Provide the reported pKd of each item.
Target: Acetylcholinesterase (Homo sapiens)
Sequence (P22303 whole entry): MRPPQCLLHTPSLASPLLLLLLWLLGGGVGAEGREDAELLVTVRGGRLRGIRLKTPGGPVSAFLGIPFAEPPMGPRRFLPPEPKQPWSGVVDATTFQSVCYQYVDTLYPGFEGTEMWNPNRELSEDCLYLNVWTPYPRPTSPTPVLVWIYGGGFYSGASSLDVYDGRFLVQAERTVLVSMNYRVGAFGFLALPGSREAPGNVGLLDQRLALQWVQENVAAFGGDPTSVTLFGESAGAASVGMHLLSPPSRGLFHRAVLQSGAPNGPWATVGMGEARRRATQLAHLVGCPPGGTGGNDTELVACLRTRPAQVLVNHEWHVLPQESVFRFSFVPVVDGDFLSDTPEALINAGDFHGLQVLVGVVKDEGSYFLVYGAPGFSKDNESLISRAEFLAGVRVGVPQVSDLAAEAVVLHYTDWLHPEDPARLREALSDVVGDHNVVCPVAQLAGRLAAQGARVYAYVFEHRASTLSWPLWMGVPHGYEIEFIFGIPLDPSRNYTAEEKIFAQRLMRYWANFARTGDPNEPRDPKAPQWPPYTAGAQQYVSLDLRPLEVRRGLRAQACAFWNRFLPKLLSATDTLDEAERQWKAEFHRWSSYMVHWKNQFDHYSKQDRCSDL
Assay: Binding affinity to CM5 sensor chip immobilized recombinant human AChE assessed as dissociation constant at 298.15 K by surface plasmon resonance assay
# pKd: negative log10 of molar concentration; output just the value

Which pKd value belongs to COc1cc2c(cc1OC)C(=O)C(CC1(F)CCN(Cc3ccc(F)cc3)CC1)C2 (configuration not stated) ?
8.56

Same again, this time with COc1cc2c(cc1OC)C(=O)C(CC1(F)CCN(Cc3cccc(F)c3)CC1)C2 (configuration not stated)
8.30

Same again, this time with COc1cc2c(cc1OC)C(=O)C(CC1(F)CCN(Cc3cc(F)c(F)cc3F)CC1)C2 (configuration not stated)
8.28

Same again, this time with C/C=C1\[C@H]2C=C(C)C[C@]1(N)c1ccc(=O)[nH]c1C2 [HUPERZINE A]
7.77

Same again, this time with COc1cc2c(cc1OC)C(=O)C(CC1(F)CCN(Cc3ccccc3)CC1)C2 (configuration not stated)
8.34

Same again, this time with COc1cc2c(cc1OC)C(=O)C(CC1(F)CCN(Cc3ccccc3F)CC1)C2 (configuration not stated)
8.46

Same again, this time with COc1cc2c(cc1OC)C(=O)C(CC1(F)CCN(Cc3ccc(F)cc3F)CC1)C2 (configuration not stated)
8.46

###

Experiment: Volume of distribution at steady state in Sprague-Dawley rat at 0.5 mg/kg, po or iv
Format: ADME, organism-based
Conditions: in vivo, read-out: Vdss
result type: Vd
Answer with the number, then the unit.

Which Vd value belongs to COc1cc2c(cc1OC)C(=O)C(CC1(F)CCN(Cc3ccccc3F)CC1)C2 (stereo unspecified) ?
6.52 L/kg

###

Target: Cytochrome P450 2B6 (Homo sapiens, UniProt P20813)
Sequence (P20813 whole entry): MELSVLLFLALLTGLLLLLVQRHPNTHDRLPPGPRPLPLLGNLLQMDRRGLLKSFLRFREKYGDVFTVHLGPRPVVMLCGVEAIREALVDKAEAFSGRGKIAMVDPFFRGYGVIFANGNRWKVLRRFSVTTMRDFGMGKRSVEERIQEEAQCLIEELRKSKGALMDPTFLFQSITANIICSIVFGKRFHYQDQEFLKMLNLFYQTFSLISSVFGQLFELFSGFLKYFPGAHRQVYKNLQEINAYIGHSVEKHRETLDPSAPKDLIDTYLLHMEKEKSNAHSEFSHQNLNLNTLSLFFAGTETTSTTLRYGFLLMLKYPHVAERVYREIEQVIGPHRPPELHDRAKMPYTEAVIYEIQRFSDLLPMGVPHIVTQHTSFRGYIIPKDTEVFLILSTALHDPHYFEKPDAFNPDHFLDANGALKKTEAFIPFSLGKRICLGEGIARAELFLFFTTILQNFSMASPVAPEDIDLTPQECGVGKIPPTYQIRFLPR
Test: Inhibition of CYP2B6 in human hepatocytes
pIC50: −log10 of the molar value.
result type: pIC50

Give Cytochrome P450 2B6 (Homo sapiens, UniProt P20813) pIC50 for COc1cc2c(cc1OC)C(=O)C(CC1(F)CCN(Cc3ccccc3F)CC1)C2 (stereo unspecified)
< 4.52

###

Experiment: Half life in Sprague-Dawley rat brain at 10 mg/kg, po
Assay type: ADME, organism-based
result type: half-life (h)
Number in h, nothing else.

Which half-life value belongs to COc1cc2c(cc1OC)C(=O)C(CC1(F)CCN(Cc3ccccc3F)CC1)C2 (stereo unspecified) ?
6.99

###

Biological target: Cytochrome P450 2D6 (Homo sapiens)
Sequence (P10635 whole entry): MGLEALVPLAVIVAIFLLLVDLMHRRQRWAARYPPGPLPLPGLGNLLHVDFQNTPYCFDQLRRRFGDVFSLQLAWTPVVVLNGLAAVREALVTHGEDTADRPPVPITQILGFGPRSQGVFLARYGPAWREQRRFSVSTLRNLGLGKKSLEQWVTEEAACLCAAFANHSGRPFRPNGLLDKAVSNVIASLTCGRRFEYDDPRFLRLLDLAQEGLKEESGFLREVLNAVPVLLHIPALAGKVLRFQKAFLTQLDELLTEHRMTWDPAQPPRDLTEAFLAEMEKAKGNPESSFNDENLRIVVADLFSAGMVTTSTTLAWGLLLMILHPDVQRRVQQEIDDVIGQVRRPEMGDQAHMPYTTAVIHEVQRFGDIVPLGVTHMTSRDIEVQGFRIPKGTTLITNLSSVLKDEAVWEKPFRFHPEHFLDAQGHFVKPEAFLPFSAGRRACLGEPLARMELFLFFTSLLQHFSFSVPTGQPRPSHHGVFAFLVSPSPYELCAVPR
Test: Inhibition of CYP2D6 in human hepatocytes
result type: IC50

Which IC50 value belongs to COc1cc2c(cc1OC)C(=O)C(CC1(F)CCN(Cc3ccccc3F)CC1)C2 (stereo unspecified) ?
> 30 µM

###

Assay: Protein binding in rat plasma
Format: ADME, cell-free
Conditions: read-out: PPB (converted)
result type: fraction unbound
// return a plain number; no unit text

Which fraction unbound value belongs to COc1cc2c(cc1OC)C(=O)C(CC1(F)CCN(Cc3ccccc3F)CC1)C2 (stereo unspecified) ?
0.031

###

Target: Cytochrome P450 1A2 (Homo sapiens)
Sequence (P05177 whole entry): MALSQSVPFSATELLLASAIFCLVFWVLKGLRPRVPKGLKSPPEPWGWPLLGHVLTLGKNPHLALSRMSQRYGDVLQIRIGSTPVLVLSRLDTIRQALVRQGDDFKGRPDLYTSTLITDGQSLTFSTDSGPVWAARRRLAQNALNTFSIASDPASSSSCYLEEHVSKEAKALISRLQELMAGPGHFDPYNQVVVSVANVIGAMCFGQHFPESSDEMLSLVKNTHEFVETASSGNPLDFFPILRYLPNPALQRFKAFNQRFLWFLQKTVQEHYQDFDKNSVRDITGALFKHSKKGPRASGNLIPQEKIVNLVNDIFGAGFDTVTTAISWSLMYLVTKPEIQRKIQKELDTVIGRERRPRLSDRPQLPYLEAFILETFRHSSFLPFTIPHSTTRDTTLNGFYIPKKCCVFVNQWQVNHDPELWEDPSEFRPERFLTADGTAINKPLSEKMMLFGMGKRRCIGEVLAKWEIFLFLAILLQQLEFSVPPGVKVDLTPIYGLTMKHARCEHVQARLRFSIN
Experiment: Inhibition of CYP1A2 in human hepatocytes
Type: ADME, cell-based, Hepatocyte
result type: IC50

Which IC50 value belongs to COc1cc2c(cc1OC)C(=O)C(CC1(F)CCN(Cc3ccccc3F)CC1)C2 (stereo unspecified) ?
> 30 µM

###

Assay: Cmax in Beagle dog at 0.25 mg/kg, po
Assay type: ADME, organism-based, Canis lupus familiaris
Design: route oral, dose 0.25 mg/kg
Conditions: in vivo
result type: Cmax (ng/mL)
Number in ng/mL, nothing else.

Which Cmax value belongs to COc1cc2c(cc1OC)C(=O)C(CC1(F)CCN(Cc3ccccc3F)CC1)C2 (stereo unspecified) ?
16.9

###

Experiment: AUC(0 to t) in Sprague-Dawley rat brain at 10 mg/kg, po
Format: ADME, organism-based
Parameters: dose 10 mg/kg
result type: AUC(0-t) (ng·h/mL)
Number in ng·h/mL, nothing else.

Which AUC(0-t) value belongs to COc1cc2c(cc1OC)C(=O)C(CC1(F)CCN(Cc3ccccc3F)CC1)C2 (stereo unspecified) ?
5840

###

Test: Oral bioavailability in Beagle dog at 0.25 mg/kg
Assay type: ADME, organism-based, Canis lupus familiaris
Conditions: in vivo
result type: bioavailability (%)
Number in %, nothing else.

Which bioavailability value belongs to COc1cc2c(cc1OC)C(=O)C(CC1(F)CCN(Cc3ccccc3F)CC1)C2 (stereo unspecified) ?
61.3

###

Experiment: AUC (0 to infinity) in Sprague-Dawley rat plasma at 10 mg/kg, po
Format: ADME, organism-based
Parameters: route oral, time infinity, dose 10 mg/kg
result type: AUC(0-inf) (ng·h/mL)
Number in ng·h/mL, nothing else.

Which AUC(0-inf) value belongs to COc1cc2c(cc1OC)C(=O)C(CC1(F)CCN(Cc3ccccc3F)CC1)C2 (stereo unspecified) ?
1140

###

Experiment: Cmax in human plasma at 8 mg, po
Format: ADME, cell-free
Design: route oral, dose 8 mg
result type: Cmax (ng/mL)
Number in ng/mL, nothing else.

Which Cmax value belongs to COc1cc2c(cc1OC)C(=O)C(CC1(F)CCN(Cc3ccccc3F)CC1)C2 (stereo unspecified) ?
16.4

###

Experiment: Ratio of drug concentration in brain to plasma of Sprague-Dawley rat at 10 mg/kg, po
Assay type: ADME, organism-based
Conditions: read-out: BPR
result type: Kp
// return a plain number; no unit text

Which Kp value belongs to COc1cc2c(cc1OC)C(=O)C(CC1(F)CCN(Cc3ccccc3F)CC1)C2 (stereo unspecified) ?
5.4

###

Assay: MRT (0 to infinity) in Sprague-Dawley rat at 0.5 mg/kg, iv
Type: ADME, organism-based
Details: in vivo
result type: MRT inf (h)
Number in h, nothing else.

Which MRT inf value belongs to COc1cc2c(cc1OC)C(=O)C(CC1(F)CCN(Cc3ccccc3F)CC1)C2 (stereo unspecified) ?
5.21

###

Assay: AUC (0 to infinity) in Sprague-Dawley rat at 0.5 mg/kg, po
Format: ADME, organism-based
Parameters: time infinity, route oral, dose 0.5 mg/kg
Details: in vivo
result type: AUC(0-inf) (ng·h/mL)
Number in ng·h/mL, nothing else.

Which AUC(0-inf) value belongs to COc1cc2c(cc1OC)C(=O)C(CC1(F)CCN(Cc3ccccc3F)CC1)C2 (stereo unspecified) ?
179

###

Experiment: AUC (0 to infinity) in Beagle dog at 0.25 mg/kg, iv
Type: ADME, organism-based, Canis lupus familiaris
Parameters: route intravenous, time infinity, dose 0.25 mg/kg
Conditions: in vivo
result type: AUC(0-inf) (ng·h/mL)
Number in ng·h/mL, nothing else.

Which AUC(0-inf) value belongs to COc1cc2c(cc1OC)C(=O)C(CC1(F)CCN(Cc3ccccc3F)CC1)C2 (stereo unspecified) ?
256

###

Biological target: Acetylcholinesterase (Rattus norvegicus)
Sequence (P37136 whole entry): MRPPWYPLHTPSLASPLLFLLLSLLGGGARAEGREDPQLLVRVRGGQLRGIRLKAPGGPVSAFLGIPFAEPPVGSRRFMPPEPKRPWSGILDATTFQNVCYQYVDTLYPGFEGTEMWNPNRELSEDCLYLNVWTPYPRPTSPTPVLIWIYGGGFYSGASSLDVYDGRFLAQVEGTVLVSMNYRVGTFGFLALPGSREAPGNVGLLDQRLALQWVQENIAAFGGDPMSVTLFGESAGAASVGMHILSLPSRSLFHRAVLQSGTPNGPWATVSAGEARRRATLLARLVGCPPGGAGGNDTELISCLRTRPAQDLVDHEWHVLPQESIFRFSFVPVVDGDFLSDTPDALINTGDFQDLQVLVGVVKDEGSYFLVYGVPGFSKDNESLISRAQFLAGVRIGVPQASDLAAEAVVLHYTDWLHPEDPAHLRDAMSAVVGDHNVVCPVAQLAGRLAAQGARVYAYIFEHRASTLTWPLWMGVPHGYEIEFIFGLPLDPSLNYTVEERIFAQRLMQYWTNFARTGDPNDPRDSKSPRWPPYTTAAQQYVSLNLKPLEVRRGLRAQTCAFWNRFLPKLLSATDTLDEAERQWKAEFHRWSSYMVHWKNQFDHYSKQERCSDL
result type: pIC50
# pIC50: negative log10 of molar concentration; output just the value

Give Acetylcholinesterase (Rattus norvegicus) pIC50 for CCCOc1cc2c(cc1OC)CC(CC1(F)CCN(Cc3ccc(F)cc3)CC1)C2=O (stereo not given)
7.74

Same again, this time with CCCOc1cc2c(cc1OC)CC(CC1(F)CCN(Cc3ccccc3F)CC1)C2=O (stereo not given)
7.60

Same again, this time with COc1cc2c(cc1OC)C(=O)C(CC1(F)CCN(Cc3cccc(C(F)(F)F)c3)CC1)C2 (stereo not given)
6.46

Same again, this time with COc1cc2c(cc1OC)C(=O)C(CC1(F)CCN(Cc3ccc(F)cc3F)CC1)C2 (stereo not given)
8.08

Same again, this time with COc1cc2c(cc1OC)C(=O)C(CC1(F)CCN(Cc3cccc(C#N)c3)CC1)C2 (stereo not given)
7.17

Same again, this time with COc1cc2c(cc1OC)C(=O)C(CC1(F)CCN(Cc3cccc(F)c3)CC1)C2 (stereo not given)
8.52

Same again, this time with COc1cc2c(cc1OC)C(=O)C(CC1(F)CCN(Cc3cc(F)cc(F)c3)CC1)C2 (stereo not given)
6.65

Same again, this time with COc1cc2c(cc1F)C(=O)C(CC1(F)CCN(Cc3ccccc3F)CC1)C2 (stereo not given)
8.45

Same again, this time with COc1cc2c(cc1F)CC(CC1(F)CCN(Cc3cccc(F)c3)CC1)C2=O (stereo not given)
7.35

Same again, this time with COc1cc2c(cc1OC)C(=O)C(CC1(F)CCN(Cc3ccc(F)c(F)c3F)CC1)C2 (stereo not given)
7.12

Same again, this time with COc1cc2c(cc1F)CC(CC1(F)CCN(Cc3ccccc3F)CC1)C2=O (stereo not given)
7.65

Same again, this time with COc1ccc2c(c1)C(=O)C(CC1(F)CCN(Cc3ccccc3F)CC1)C2 (stereo not given)
7.22

Same again, this time with COc1ccc2c(c1)CC(CC1(F)CCN(Cc3ccccc3F)CC1)C2=O (stereo not given)
8.20

Same again, this time with COc1cc2c(cc1F)C(=O)C(CC1(F)CCN(Cc3ccc(F)cc3)CC1)C2 (stereo not given)
8.46

Same again, this time with COc1cc2c(cc1OC)C(=O)C(CC1(F)CCN(Cc3cccc(C)c3)CC1)C2 (stereo not given)
7.93

Same again, this time with COc1cc2c(cc1F)C(=O)C(CC1(F)CCN(Cc3cccc(F)c3)CC1)C2 (stereo not given)
8.43

Same again, this time with COc1ccc2c(c1)CC(CC1(F)CCN(Cc3cccc(F)c3)CC1)C2=O (stereo not given)
7.85

Same again, this time with COc1cc2c(cc1OC)C(=O)C(CC1(F)CCN(CCc3ccc(F)cc3)CC1)C2 (stereo not given)
6.39

Same again, this time with CCCOc1cc2c(cc1OCCC)C(=O)C(CC1(F)CCN(Cc3cccc(F)c3)CC1)C2 (stereo not given)
6.75

Same again, this time with COc1ccc2c(c1)C(=O)C(CC1(F)CCN(Cc3ccc(F)cc3)CC1)C2 (stereo not given)
6.59
